All figures here come from PubChem BioAssay AID1963829.

Recorded viability, T/C, one value per entry.
# Test system: 935938-334-R-J1-PDC complex spheroid viability
# measurement.description: Anticancer human tumor 935938-334-R-J1-PDC patient-derived small intestine adenocarcinoma cell line growth inhibition [POLQ]
# condition: second compound 0.1 µM; first compound 0.1 µM; stronger effect = lower value
test.readout: viability, T/C (%)

compound="COc1ccc([C@@H](O)c2cc(-c3ncnc4cc(N5CCOCC5)ccc34)c(F)cc2Cl)nn1 + COC1C(OC(N)=O)C(O)C(Oc2ccc3c(O)c(NC(=O)c4ccc(O)c(CC=C(C)C)c4)c(=O)oc3c2C)OC1(C)C" unit_info=% reported=106
compound="O=C(c1cc(Cc2n[nH]c(=O)c3ccccc23)ccc1F)N1CCN(C(=O)C2CC2)CC1 + Cc1cccc(N(C)C(=O)C2C(O)CCN2c2nc(C)cc(C(F)(F)F)c2C#N)c1" unit_info=% reported=81
compound="C=CCn1c(=O)c2cnc(Nc3ccc(N4CCN(C)CC4)cc3)nc2n1-c1cccc(C(C)(C)O)n1 + Nc1ccc(C#CCN(C(=O)Cc2ncc(C(F)(F)F)cc2C(F)(F)F)c2ccc(F)cc2)nn1" unit_info=% reported=96.6
compound="COc1ccc([C@@H](O)c2cc(-c3ncnc4cc(N5CCOCC5)ccc34)c(F)cc2Cl)nn1 + Cc1cccc(N(C)C(=O)C2C(O)CCN2c2nc(C)cc(C(F)(F)F)c2C#N)c1" unit_info=% reported=98.1
compound="CC1COCCN1c1cc(C2(S(C)(=N)=O)CC2)nc(-c2ccnc3[nH]ccc23)n1 (stereo not given) + Nc1ccc(C#CCN(C(=O)Cc2ncc(C(F)(F)F)cc2C(F)(F)F)c2ccc(F)cc2)nn1" unit_info=% reported=117

* * *

# System: 935938-334-R-J1-PDC complex spheroid viability
# measurement.description: Anticancer human tumor 935938-334-R-J1-PDC cell line growth inhibition [POLQ];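 note: spheroids exposed to drugs for seven days before viability read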;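 for viability, T/C: 100% = DMSO vehicle control wells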
# condition: second compound 0.1 µM; first compound 0.316 µM; stronger effect = lower value
Recorded viability, T/C, one value per entry.
test.readout: viability, T/C (%)

compound="O=C(Nc1ccc(O)c(NS(=O)(=O)c2ccc(F)cc2)c1)c1ccc(-c2ccccc2)cc1 + Cc1cccc(N(C)C(=O)C2C(O)CCN2c2nc(C)cc(C(F)(F)F)c2C#N)c1" experimental_target="935938-334-R-J1-PDC complex spheroid viability" unit_info=% reported=76.1
compound="Nc1ccn(C2OC(CO)C(O)C2(F)F)c(=O)n1 (stereo not given) + Nc1ccc(C#CCN(C(=O)Cc2ncc(C(F)(F)F)cc2C(F)(F)F)c2ccc(F)cc2)nn1" experimental_target="935938-334-R-J1-PDC complex spheroid viability" unit_info=% reported=16.5
compound="Nc1ccn(C2OC(CO)C(O)C2(F)F)c(=O)n1 (stereo not given) + COC1C(OC(N)=O)C(O)C(Oc2ccc3c(O)c(NC(=O)c4ccc(O)c(CC=C(C)C)c4)c(=O)oc3c2C)OC1(C)C" experimental_target="935938-334-R-J1-PDC complex spheroid viability" unit_info=% reported=17.8
compound="COc1cccc2c1C(=O)c1c(O)c3c(c(O)c1C2=O)CC(O)(C(=O)CO)CC3OC1CC(N)C(O)C(C)O1 (stereo not given) + Nc1ccc(C#CCN(C(=O)Cc2ncc(C(F)(F)F)cc2C(F)(F)F)c2ccc(F)cc2)nn1" experimental_target="935938-334-R-J1-PDC complex spheroid viability" unit_info=% reported=31.3
compound="O=C(c1cc(Cc2n[nH]c(=O)c3ccccc23)ccc1F)N1CCN(C(=O)C2CC2)CC1 + Cc1cccc(N(C)C(=O)C2C(O)CCN2c2nc(C)cc(C(F)(F)F)c2C#N)c1" experimental_target="935938-334-R-J1-PDC complex spheroid viability" unit_info=% reported=73.3

* * *

# Tested on: 935938-334-R-J1-PDC complex spheroid viability
# measurement.description: Anticancer human tumor 935938-334-R-J1-PDC cell line growth inhibition [POLQ];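 note: spheroids exposed to drugs for seven days before viability read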
# condition: curve of first compound; second compound 0.316 µM
# Method: Multicellular complex tumor spheroid response to Polymerase (POL) inhibitors (novobiocin, ART-558, RP6685) in combination with a variety of drugs and investigational agents in selected tumor cell lines The POL inhibitors (novobiocin, ART-558, and RP6685) were evaluated both individually and in combination with standard of care and investigational anticancer small molecules within a complex spheroid model of solid tumors. . […]
Recorded IC50, one value per entry.
test.readout: IC50

compound="COc1cccc2c1C(=O)c1c(O)c3c(c(O)c1C2=O)CC(O)(C(=O)CO)CC3OC1CC(N)C(O)C(C)O1 (stereo unspecified) + Cc1cccc(N(C)C(=O)C2C(O)CCN2c2nc(C)cc(C(F)(F)F)c2C#N)c1" experimental_target="935938-334-R-J1-PDC complex spheroid viability" reported="52 nM"
compound="Nc1ccn(C2OC(CO)C(O)C2(F)F)c(=O)n1 (stereo unspecified) + Cc1cccc(N(C)C(=O)C2C(O)CCN2c2nc(C)cc(C(F)(F)F)c2C#N)c1" experimental_target="935938-334-R-J1-PDC complex spheroid viability" reported="< 31.6 nM"
compound="CC1COCCN1c1cc(C2(O)CC3CCC(C2)O3)c2cnn(-c3ccn[nH]3)c2n1 (stereo unspecified) + Cc1cccc(N(C)C(=O)C2C(O)CCN2c2nc(C)cc(C(F)(F)F)c2C#N)c1" experimental_target="935938-334-R-J1-PDC complex spheroid viability" reported="331 nM"
compound="COc1cc2cc(C(=O)CCC(=O)O)sc2cc1OC + Cc1cccc(N(C)C(=O)C2C(O)CCN2c2nc(C)cc(C(F)(F)F)c2C#N)c1" experimental_target="935938-334-R-J1-PDC complex spheroid viability" reported="> 10000 nM"
compound="Cn1ncnc1[C@H]1c2n[nH]c(=O)c3cc(F)cc(c23)N[C@@H]1c1ccc(F)cc1 + Nc1ccc(C#CCN(C(=O)Cc2ncc(C(F)(F)F)cc2C(F)(F)F)c2ccc(F)cc2)nn1" experimental_target="935938-334-R-J1-PDC complex spheroid viability" reported="> 100 nM"
compound="CCc1cc2c(N3CCc4c(cc(Cn5ccnc5)cc4-c4cn(C)nc4C(F)(F)F)C3=O)cc(C)nc2c(OC)n1 + Cc1cccc(N(C)C(=O)C2C(O)CCN2c2nc(C)cc(C(F)(F)F)c2C#N)c1" experimental_target="935938-334-R-J1-PDC complex spheroid viability" reported="> 10000 nM"

* * *

# System: 935938-334-R-J1-PDC complex spheroid viability
# measurement.description: Anticancer human tumor 935938-334-R-J1-PDC cell line growth inhibition [POLQ];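 note: spheroids exposed to drugs for seven days before viability read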;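 for viability, T/C: 100% = DMSO vehicle control wells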
# condition: second compound 1 µM; first compound 0.316 µM; stronger effect = lower value
Values of viability, T/C strictly less than 20% map to criterion met, and values of at least 20% map to criterion not met.

compound="O=C(Nc1ccc(O)c(NS(=O)(=O)c2ccc(F)cc2)c1)c1ccc(-c2ccccc2)cc1 + Nc1ccc(C#CCN(C(=O)Cc2ncc(C(F)(F)F)cc2C(F)(F)F)c2ccc(F)cc2)nn1" label_class="criterion not met"
compound="C=CCn1c(=O)c2cnc(Nc3ccc(N4CCN(C)CC4)cc3)nc2n1-c1cccc(C(C)(C)O)n1 + Nc1ccc(C#CCN(C(=O)Cc2ncc(C(F)(F)F)cc2C(F)(F)F)c2ccc(F)cc2)nn1" label_class="criterion not met"
compound="Nc1ccn(C2OC(CO)C(O)C2(F)F)c(=O)n1 (stereo not given) + Nc1ccc(C#CCN(C(=O)Cc2ncc(C(F)(F)F)cc2C(F)(F)F)c2ccc(F)cc2)nn1" label_class="criterion met"
compound="C=CC(=O)N1CCN(c2nc(=O)n(-c3c(C)ccnc3C(C)C)c3nc(-c4c(O)cccc4F)c(F)cc23)C(C)C1 (stereo not given) + COC1C(OC(N)=O)C(O)C(Oc2ccc3c(O)c(NC(=O)c4ccc(O)c(CC=C(C)C)c4)c(=O)oc3c2C)OC1(C)C" label_class="criterion not met"

* * *

# System: 935938-334-R-J1-PDC complex spheroid viability
# measurement.description: Anticancer human tumor 935938-334-R-J1-PDC cell line growth inhibition [POLQ];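 note: spheroids exposed to drugs for seven days before viability read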;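 for viability, T/C: 100% = DMSO vehicle control wells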
# condition: second compound 0.0316 µM; first compound 10 µM; stronger effect = lower value
# Experimental: Multicellular complex tumor spheroid response to Polymerase (POL) inhibitors (novobiocin, ART-558, RP6685) in combination with a variety of drugs and investigational agents in selected tumor cell lines The POL inhibitors (novobiocin, ART-558, and RP6685) were evaluated both individually and in combination with standard of care and investigational anticancer small molecules within a complex spheroid model of solid tumors. . […]
Recorded viability, T/C, one value per entry.
test.readout: viability, T/C (%)

molecule="COc1cc(C2c3cc4c(cc3C(OC3OC5COC(C)OC5C(O)C3O)C3COC(=O)C23)OCO4)cc(OC)c1O (stereo not given) + COC1C(OC(N)=O)C(O)C(Oc2ccc3c(O)c(NC(=O)c4ccc(O)c(CC=C(C)C)c4)c(=O)oc3c2C)OC1(C)C" unit_info=% reported=29.4
molecule="CCc1cc2c(N3CCc4c(cc(Cn5ccnc5)cc4-c4cn(C)nc4C(F)(F)F)C3=O)ccnc2c(OC)n1 + COC1C(OC(N)=O)C(O)C(Oc2ccc3c(O)c(NC(=O)c4ccc(O)c(CC=C(C)C)c4)c(=O)oc3c2C)OC1(C)C" unit_info=% reported=65.9
molecule="CCc1cc2c(N3CCc4c(cc(Cn5ccnc5)cc4-c4cn(C)nc4C(F)(F)F)C3=O)ccnc2c(OC)n1 + Cc1cccc(N(C)C(=O)C2C(O)CCN2c2nc(C)cc(C(F)(F)F)c2C#N)c1" unit_info=% reported=55.3
molecule="CC1COCCN1c1cc(C2(S(C)(=N)=O)CC2)nc(-c2ccnc3[nH]ccc23)n1 (stereo not given) + COC1C(OC(N)=O)C(O)C(Oc2ccc3c(O)c(NC(=O)c4ccc(O)c(CC=C(C)C)c4)c(=O)oc3c2C)OC1(C)C" unit_info=% reported=23.1
molecule="CC1COCCN1c1cc(-c2ccnn2C)c2ccnc(-c3ccn[nH]3)c2n1 (stereo not given) + Nc1ccc(C#CCN(C(=O)Cc2ncc(C(F)(F)F)cc2C(F)(F)F)c2ccc(F)cc2)nn1" unit_info=% reported=17.6
molecule="CCCS(=O)(=O)Nc1ccc(F)c(C(=O)c2c[nH]c3ncc(-c4ccc(Cl)cc4)cc23)c1F + COC1C(OC(N)=O)C(O)C(Oc2ccc3c(O)c(NC(=O)c4ccc(O)c(CC=C(C)C)c4)c(=O)oc3c2C)OC1(C)C" unit_info=% reported=45.4
molecule="COc1cc2cc(C(=O)CCC(=O)O)sc2cc1OC + COC1C(OC(N)=O)C(O)C(Oc2ccc3c(O)c(NC(=O)c4ccc(O)c(CC=C(C)C)c4)c(=O)oc3c2C)OC1(C)C" unit_info=% reported=110
molecule="CNCc1ccc(-c2[nH]c3cc(F)cc4c3c2CCNC4=O)cc1 + COC1C(OC(N)=O)C(O)C(Oc2ccc3c(O)c(NC(=O)c4ccc(O)c(CC=C(C)C)c4)c(=O)oc3c2C)OC1(C)C" unit_info=% reported=83.4
molecule="C#Cc1c(F)ccc2cc(O)cc(-c3ncc4c(N5CC6CCC(C5)N6)nc(OCC56CCCN5CC(F)C6)nc4c3F)c12 (stereo not given) + Cc1cccc(N(C)C(=O)C2C(O)CCN2c2nc(C)cc(C(F)(F)F)c2C#N)c1" unit_info=% reported=29.7
molecule="O=C(Nc1ccc(O)c(NS(=O)(=O)c2ccc(F)cc2)c1)c1ccc(-c2ccccc2)cc1 + Nc1ccc(C#CCN(C(=O)Cc2ncc(C(F)(F)F)cc2C(F)(F)F)c2ccc(F)cc2)nn1" unit_info=% reported=64.6
